Tested on: MDA-MB-231 breast
protocol.text: NCI tumour cell line growth inhibition, 48 h
value.kind: TGI

stdin: I have this molecule here, `COc1ccc(-n2c(N)c(C#N)[nH]c2=O)cc1` , and I need its recorded TGI.
stdout: > 10 µM

stdin: Similarly, `COC(=O)c1cc2c3ccccc3n3c(=O)c4cc5ccc(N(S(=O)(=O)c6ccc(C)cc6)S(=O)(=O)c6ccc(C)cc6)cc5nc4c(n1)c23` ?
stdout: > 100 µM

stdin: Entry to check: `Nc1nc(Cl)c(N)c(NCC2(CO)CC2)n1`
stdout: > 100 µM

stdin: Please answer likewise for `Nc1nonc1-c1nc2cnccc2n1C1CC1`
stdout: > 25 µM

stdin: Another molecule: CC[C@@]1(O)C(=O)OCc2c1cc1n(c2=O)Cc2c-1nc1ccccc1c2/C=N\NC(=O)C1CCCN1 (stereo partly specified)
stdout: > 100 µM

stdin: Now this one: `COc1ccc(NC(=O)CSC2=C(Nc3cccc(Br)c3)C(=O)N(Cc3ccccc3)C2=O)cc1Cl`
stdout: > 100 µM

###

Test system: M14 melanoma
protocol.text: NCI tumour cell line growth inhibition, 48 h
value.kind: TGI

stdin: Could you share which TGI value was measured for `O=[N+]([O-])c1ccc2c(c1)N([O-])C1(CCCCC1)[N+]2=O` ?
stdout: 30.5 µM

stdin: Next: `CCNc1cc(-c2cccc(OC(F)(F)F)c2)nc2ccc(N3CCCC3)cc12`
stdout: 3.28 µM

stdin: Field entry: `Cc1[nH]nc(C(F)(F)F)c1N=NN(C)C`
stdout: 29.7 µM

stdin: Same for `CC(=N\N)/C(C)=N/N=C(C)/C(C)=N/N`
stdout: > 100 µM

stdin: Please answer likewise for `c1ccc2c(c1)c1c(n2CCOCCN2CCCC2)CCCC1`
stdout: 29.5 µM

stdin: Also, `COc1ccc(/C=C/C(=O)/C=C/c2cc3ccccc3[nH]c2=O)cc1` please.
stdout: 8.92 µM

stdin: Next compound: `COc1ccc(-c2cs/c(=N\N=C\c3ccc(O)cc3O)n2/N=C/c2ccc(O)cc2O)cc1`
stdout: 3.21 µM

stdin: Another compound to check: CN(C(=O)C12C3C4C5C3C1(C(=O)C13C6C7C8C6C1C8C73)C5C42)C(C)(C)C (stereo not drawn)
stdout: > 50 µM

stdin: Also, `CO/N=C(/C)c1cccc(Nc2nc3ccccc3c3[nH]c4ccccc4c23)c1` please.
stdout: 21.1 µM

stdin: Try the compound [N-]=[N+]=NC1OC(=O)C(Cl)=C1N=P(c1ccccc1)(c1ccccc1)c1ccccc1 (stereo not drawn)
stdout: > 10 µM

stdin: And then O=C1/C(=C\c2cccc(Oc3ccccc3)c2)SC(c2ccccc2)N1c1ccccc1 (stereo not drawn) , what is it?
stdout: > 100 µM

stdin: Try this compound next: `OCc1ccc(N2CCc3cccc(F)c3C2)cc1Cl`
stdout: > 78.7 µM

stdin: Then NC(=O)N/N=C(/CC1C(=O)Oc2ccccc21)c1ccccc1O (stereo not drawn) ?
stdout: > 100 µM

stdin: // same read-out, input: `Cc1cc2/c(=C\c3ccc(N(C)C)cc3)c3ccccc3n2[n+]1C`
stdout: 3.73 µM

stdin: Try `O=C1C(Br)=C(c2ccccc2)O/C1=C/C(=O)c1ccc(Br)cc1` next.
stdout: > 100 µM

stdin: # iterate: `CC(C)c1c(-c2ccccc2)nc2c(C#N)c[nH]n2c1=O`
stdout: > 100 µM

stdin: Consider next the compound COC(CN(C(C)=O)C1CCC2(SCCS2)c2[nH]c3ccccc3c21)OC (stereo not drawn) in the same way.
stdout: > 100 µM

stdin: Another compound to check: `C=C(C(=O)O)[C@@H]1C[C@@H]2O[C@H]1[C@@H](O)[C@@H](C)CCCC(C)=CCC[C@@]2(C)O`
stdout: > 100 µM

###

Tested on: UACC-257 melanoma
protocol.text: NCI tumour cell line growth inhibition, 48 h
value.kind: TGI

stdin: Entry COC(=O)CCC1=C(CC(=O)OC)C(C)(OC)N=C1NC(=O)OCc1ccccc1 (stereo not drawn) , system UACC-257 melanoma: what TGI was measured?
stdout: > 100 µM

stdin: Item: `CCOC(=O)Nc1nc2ccc(OC)cc2s1`
stdout: > 100 µM

stdin: Okay, and `O=S(=O)(NCCNc1nccc(-c2c(-c3ccc(F)c(O)c3)nc3sccn23)n1)c1ccc(F)cc1` ?
stdout: 18.3 µM

stdin: Same question for CC1CCC2(NC1)OC1CC3C4CC=C5CC(O)CCC5(C)C4CCC3(C)C1C2C (stereo not drawn) please.
stdout: > 100 µM

stdin: Next entry: `O=S(=O)(Nc1nc2ccccc2nc1Nc1ccc2ccccc2c1)c1ccccc1`
stdout: > 100 µM

stdin: // repeat for `CC(C)CCC[C@@H](C)[C@H]1CC[C@H]2[C@@H]3CC[C@H]4C[C@@H](CCC=C(c5cc(Cl)c(O)c(C(=O)O)c5)c5cc(Cl)c(O)c(C(=O)O)c5)CC[C@]4(C)[C@H]3CC[C@]12C` and report
stdout: > 100 µM

stdin: Try `O=C(Nc1cc(C(F)(F)F)ccc1Cl)c1ccc(NC2=C(Cl)C(=O)N(Cc3ccccc3)C2=O)cc1` next.
stdout: 96.9 µM

stdin: Please give the result for `CSc1ccc(-c2cc(-c3nc4ccccc4[nH]3)no2)cc1` too.
stdout: 85.9 µM

###

Test system: SF-268 CNS
protocol.text: NCI tumour cell line growth inhibition, 48 h
Record form. Attribute: TGI. Fill in for each entry.
Report the value in µM with no unit label.

stdin: Short answer please: TGI, SF-268 CNS, entry `CCCCCCCCOC(=O)CC[C@@H](C)[C@H]1CC[C@H]2[C@@H]3[C@H](OC(=O)CCN)C[C@@H]4C[C@H](OC(=O)CCN)CC[C@]4(C)[C@H]3C[C@H](OC(=O)CCN)[C@]12C`
stdout: 9.12

stdin: Follow-up entry: CCC1CC2C(=O)N(c3ccccc3)C(=O)C2c2[nH]c3ccccc3c21 (stereo not given)
stdout: 80

stdin: Also `Cc1c2c3ccccc3nc-2n(C)c2ccccc12` , if possible.
stdout: 19.1

###

Test system: OVCAR-3 ovarian
protocol.text: NCI tumour cell line growth inhibition, 48 h
value.kind: TGI (µM)
Give the value, in units of µM, as a plain number.

stdin: Value lookup for TGI; key = `COc1ccccc1C#Cc1ccccc1C#CCCCCO`
stdout: 47.2

stdin: Another compound to check: `NC1=C(NC(=O)Cc2ccccc2F)C(=O)c2ccccc2C1=O`
stdout: 66.9

stdin: Likewise for `C=CCNc1nc2c(s1)C(=O)c1ccccc1C2=O` ?
stdout: 37.6

stdin: And the next one, `CN(C)CCNC(=O)c1ccc(NCCCN(C)CCCNc2ccc(C(=O)NCCN(C)C)c3[nH]c4ccccc4c(=O)c23)c2c(=O)c3ccccc3[nH]c12` ?
stdout: 0.694

stdin: Then CN1CN(c2ccccc2)C2(CCN(CC(C)(c3ccc(F)cc3)C3OCCCO3)CC2)C1=O (stereo not drawn) ?
stdout: 24.5

stdin: For O=C(O)CCS/C(=C\C(SCCC(=O)O)c1ccc(Cl)cc1)c1ccc(Cl)cc1 (stereo not drawn) then?
stdout: 49

stdin: Another compound to look at: `Cc1[nH]nc(C(F)(F)F)c1N=NN(C)C`
stdout: 22.1

stdin: Next up: C=CCC1CC(n2cc(C)c(=O)[nH]c2=O)OC1CO[Si](C)(C)C(C)(C)C (stereo not drawn)
stdout: 31

stdin: Same question, `Cc1c2ccncc2cc2c1[nH]c1ccccc12` this time
stdout: 25.8

stdin: Same question, `O=S(=O)(Nc1nc2ccccc2nc1Nc1ccc2ccccc2c1)c1ccccc1` this time
stdout: 8.96

stdin: Check `O=C(N/N=C/c1cc(Cl)cc(Cl)c1[O-])c1ccccc1O.O=C(N/N=C/c1cc(Cl)cc(Cl)c1[O-])c1ccccc1O.[Co+2]` too.
stdout: 0.969

stdin: Try CC(C)(C)c1cc(C(O)(C(F)(F)F)C(F)(F)F)c2c(c1)C(C(F)(F)F)(C(F)(F)F)OC(C)(C(C)(C)C)N2 (stereo not drawn) next.
stdout: 9.18

###

System: COLO 205 colon
protocol.text: NCI tumour cell line growth inhibition, 48 h
Could you please report measured GI50 for the items listed next?

stdin: Return reported GI50; argument: CC(=O)c1ccc2c(c1)C1C=CCC1[C@H](c1cc3c(cc1Br)OCO3)N2 (some centres not stated)
stdout: 1940 nM

stdin: Now try `CCC[CH2][Sn]([Cl])([Cl])[CH2]CCC` .
stdout: 1150 nM

stdin: Then `O=C(Nc1cc(C(F)(F)F)ccc1Cl)c1ccc(NC2=C(Cl)C(=O)N(Cc3ccccc3)C2=O)cc1` ?
stdout: 16000 nM

stdin: `C[C@@H]1C[C@H](C)CN(S(=O)(=O)c2ccc3c(NO)c4ccc(S(=O)(=O)N5C[C@H](C)C[C@H](C)C5)cc4c(N=O)c3c2)C1` ?
stdout: 172 nM

stdin: // next record CN(CCCCCl)P(=O)(OCCS(=O)(=O)CC(NC(=O)CCC(N)C(=O)O)C(=O)NC(C(=O)O)c1ccccc1)OCC1OC(n2ccc(N)nc2=O)C(F)(F)C1O (configuration not stated)
stdout: 912 nM

stdin: Follow-up item: `O=C1/C(=C/c2cccc(Br)c2)COc2ccc(O)cc21`
stdout: 3330 nM

stdin: Then this compound: `O=C(O)c1ccc(NCn2nc(-c3ccccc3O)oc2=S)cc1`
stdout: 48800 nM
